Biological target: Short transient receptor potential channel 4 (Mus musculus, UniProt Q9QUQ5)
Sequence (Q9QUQ5 whole entry): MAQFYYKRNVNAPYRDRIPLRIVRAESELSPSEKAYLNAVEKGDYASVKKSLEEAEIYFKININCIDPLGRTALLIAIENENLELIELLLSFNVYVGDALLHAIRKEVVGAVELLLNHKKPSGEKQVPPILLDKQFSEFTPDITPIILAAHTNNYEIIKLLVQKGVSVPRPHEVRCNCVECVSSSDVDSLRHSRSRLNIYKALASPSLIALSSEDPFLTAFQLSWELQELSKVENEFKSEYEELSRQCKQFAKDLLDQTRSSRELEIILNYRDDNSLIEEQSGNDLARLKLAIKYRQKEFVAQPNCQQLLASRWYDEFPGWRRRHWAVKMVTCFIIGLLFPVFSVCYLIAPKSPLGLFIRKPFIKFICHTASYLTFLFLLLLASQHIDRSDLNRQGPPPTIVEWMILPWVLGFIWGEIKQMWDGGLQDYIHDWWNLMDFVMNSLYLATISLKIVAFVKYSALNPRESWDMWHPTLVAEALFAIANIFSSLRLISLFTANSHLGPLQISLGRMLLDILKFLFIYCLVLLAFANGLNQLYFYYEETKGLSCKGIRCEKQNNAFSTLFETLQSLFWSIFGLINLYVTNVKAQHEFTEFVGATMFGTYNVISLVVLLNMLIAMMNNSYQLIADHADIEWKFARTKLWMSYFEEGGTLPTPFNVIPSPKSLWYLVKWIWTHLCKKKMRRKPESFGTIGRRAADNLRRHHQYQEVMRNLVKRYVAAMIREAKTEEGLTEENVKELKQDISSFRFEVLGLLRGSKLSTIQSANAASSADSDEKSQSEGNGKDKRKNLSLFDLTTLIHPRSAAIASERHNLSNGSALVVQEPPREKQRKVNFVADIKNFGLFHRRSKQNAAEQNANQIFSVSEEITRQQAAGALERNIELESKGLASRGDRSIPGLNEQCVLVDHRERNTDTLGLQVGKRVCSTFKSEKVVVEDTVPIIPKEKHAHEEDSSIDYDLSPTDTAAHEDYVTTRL
Test: block of DAMGO-driven TRPC4 calcium entry – cell-based, HEK293 TRPC4/mu-opioid, Fluo-4 calcium, dose response (AID 434942);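 further: potency of inhibitors blocking the TRPC4 calcium response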
Format: functional
Calls of active or inactive are those of the source. How the calls were made is not given here.
attribute measured: EC50

[[record]]
molecule = "O=C1/C(=C/c2ccccc2Cl)SC(=S)N1CCCC(=O)N(CCO)c1ccccc1"
attribute_measured = "EC50"
assay_result = "0.473 µM (active)"

[[record]]
molecule = "COc1ccc(C)cc1NC1=NC(C)(C)CS1"
attribute_measured = "EC50"
assay_result = "7.5 µM (active)"

[[record]]
molecule = "CC(Cc1ccccc1Sc1ccccc1O)N(C)C (stereo not drawn)"
attribute_measured = "EC50"
assay_result = "0.944 µM (active)"

[[record]]
molecule = "Cn1c(-c2ccc(F)cc2)cnc1NCc1ccc(F)cc1"
attribute_measured = "EC50"
assay_result = "0.749 µM (active)"

[[record]]
molecule = "O=C(NC1CC1)C1=C[C@H](C2CCCCC2)C[C@H](OCc2ccc(CO)cc2)O1"
attribute_measured = "EC50"
assay_result = "5.31 µM (active)"

[[record]]
molecule = "N#Cc1c(-c2cccs2)nc(SCc2ccc(Cl)cc2)[nH]c1=O"
attribute_measured = "EC50"
assay_result = "4.22 µM (active)"

[[record]]
molecule = "CC12CN3CC(C)(CN(C1)C3c1ccc(Cl)cc1Cl)C2O (stereo not drawn)"
attribute_measured = "EC50"
assay_result = "4.22 µM (active)"

[[record]]
molecule = "COc1ccccc1Nc1nc(NCC2CCCO2)c2ccccc2n1 (stereo not drawn)"
attribute_measured = "EC50"
assay_result = "2.66 µM (active)"

